read-out: CYP4A11 (gene 1579); experiment: LTEA_HepaRG_CYP4A11: Life Technologies and Expression Analysis (LTEA) Assay for CYP4A11 using HepaRG (AID 2283486); settings: mRNA level, 48 h; actives raise or lower the signal
Activity calls are given as the source filed them. Rule for the calls: active = hit-call score of the fitted dose curve at least 0.9, where 1 is the maximum; inactive = score below 0.9.
Test Readout: AC50

CCCCCCCC=O; inactive
Clc1cc(Cl)c(Cl)cc1Cl; inactive
O=c1c(O)c(-c2ccc(O)c(O)c2)oc2cc(O)cc(O)c12; 50 µM (active)
CC(=O)OCCOCCOCCOC(C)=O; inactive
CCOc1ccc2c(c1)C(C)=CC(C)(C)N2; inactive

Input line: Look up AC50 for this compound: COC(=O)c1ccc(O)cc1
Output line: inactive

Input line: Lookup Cc1ccc(N(C)C)cc1
Output line: inactive

Input line: Lookup COCCOCCOC
Output line: inactive

Input line: Lookup OC[C@@H](O)[C@@H](O)[C@H](O)[C@H](O)CO
Output line: inactive

Input line: Lookup CCCCc1ccc2c(n1)[C@@H](c1ccc(OC)cc1C[C@H](C)C(=O)O)[C@H](C(=O)O)[C@H]2c1ccc2c(c1)OCO2
Output line: inactive

Input line: Lookup Cc1oc(-c2ccccc2)nc1CCOc1cccc2c1ccn2CCC(=O)O
Output line: 85.9 µM (active)

Input line: Lookup CC1=C(/C=C/C(C)=C/C=C/C(C)=C/CO)C(C)(C)CCC1
Output line: 15.5 µM (active)

Input line: Lookup C[Si]1(C)O[Si](C)(C)O[Si](C)(C)O[Si](C)(C)O1
Output line: inactive

Input line: Lookup CCCc1cc(=O)[nH]c(=S)[nH]1
Output line: inactive

Input line: Lookup Cc1ccc(C(C)C)c(O)c1
Output line: inactive

Input line: Lookup Cc1cc(NC(=O)C(=O)O)cc(C)c1Oc1ccc(O)c2c1CCC2
Output line: 0.00589 µM (active)

Input line: Lookup CNC(=O)[C@H]1O[C@@H](n2cnc3c(NCc4cc(Cl)ccc4OCc4cc(C)no4)ncnc32)[C@H](O)[C@@H]1N
Output line: inactive

Input line: Lookup Cc1c(C(=O)O)c(O)cc2c1C(=O)c1c(O)c([C@@H]3O[C@H](CO)[C@@H](O)[C@H](O)[C@H]3O)c(O)c(O)c1C2=O
Output line: inactive

---

read-out: Signal transducer and activator of transcription 3 (Homo sapiens) (UniProt P40763); assay: LTEA_HepaRG_STAT3: Life Technologies and Expression Analysis (LTEA) Assay for Signal transducer and activator of transcription (STAT3) using HepaRG (AID 2283529); conditions: mRNA level, 48 h; actives raise or lower the signal
Sequence (P40763 whole entry, looked up): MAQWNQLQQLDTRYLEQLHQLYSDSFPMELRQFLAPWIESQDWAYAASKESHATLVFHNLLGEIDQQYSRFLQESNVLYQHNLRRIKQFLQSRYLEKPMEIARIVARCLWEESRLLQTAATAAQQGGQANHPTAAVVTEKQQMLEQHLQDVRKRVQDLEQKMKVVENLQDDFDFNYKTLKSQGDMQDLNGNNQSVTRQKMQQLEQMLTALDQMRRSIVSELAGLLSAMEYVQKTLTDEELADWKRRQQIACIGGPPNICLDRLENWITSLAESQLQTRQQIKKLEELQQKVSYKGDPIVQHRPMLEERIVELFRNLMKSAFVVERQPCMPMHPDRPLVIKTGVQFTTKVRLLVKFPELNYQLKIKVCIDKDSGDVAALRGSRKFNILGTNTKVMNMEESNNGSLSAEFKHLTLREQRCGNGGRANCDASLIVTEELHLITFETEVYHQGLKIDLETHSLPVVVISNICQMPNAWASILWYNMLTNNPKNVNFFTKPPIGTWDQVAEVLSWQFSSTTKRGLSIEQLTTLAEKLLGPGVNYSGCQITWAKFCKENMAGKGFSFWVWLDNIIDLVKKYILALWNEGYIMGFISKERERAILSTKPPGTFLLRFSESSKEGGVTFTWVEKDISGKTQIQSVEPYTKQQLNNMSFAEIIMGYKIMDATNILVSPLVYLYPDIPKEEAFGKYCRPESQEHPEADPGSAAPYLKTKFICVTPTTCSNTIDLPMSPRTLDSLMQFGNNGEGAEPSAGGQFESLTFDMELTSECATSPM
The source made the active and inactive calls. Rule for the calls: active = hit-call score of the fitted dose curve at least 0.9, where 1 is the maximum; inactive = score below 0.9.
Your reply should match one of these outcome classes. 1.0 (active), 0.0 (inactive)

Nc1nc(N)c2nc(CNc3ccc(C(=O)N[C@@H](CCC(=O)O)C(=O)O)cc3)cnc2n1; 0.0
O=C(O)CCCCC(=O)O; 0.0
COc1ccc(C)cc1N; 0.0

Input line: Which outcome did this test record for the compound Cc1ccc(N(C)C)cc1 ?
Output line: 0.0

Input line: Lookup CCCCC(CC)COC(=O)CC(C(=O)OCC(CC)CCCC)S(=O)(=O)O (configuration not stated)
Output line: 0.0

Input line: Lookup CN[C@H]1CC[C@@H](c2ccc(Cl)c(Cl)c2)c2ccc(S(N)(=O)=O)cc21
Output line: 1.0

Input line: Lookup CCCCCCCCCCCCCCCCCC(=O)O
Output line: 0.0

---

biological target: human Dopamine Transporter (DAT), SLC6A3 (gene 6531) (UniProt Q01959); test: NVS_TR_hDAT: NovaScreen (NVS) Transporter Assay for human Dopamine Transporter (DAT) (AID 2283374);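 note: activity means loss of bound radioligand signal relative to DMSO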
Sequence (Q01959 whole entry, looked up): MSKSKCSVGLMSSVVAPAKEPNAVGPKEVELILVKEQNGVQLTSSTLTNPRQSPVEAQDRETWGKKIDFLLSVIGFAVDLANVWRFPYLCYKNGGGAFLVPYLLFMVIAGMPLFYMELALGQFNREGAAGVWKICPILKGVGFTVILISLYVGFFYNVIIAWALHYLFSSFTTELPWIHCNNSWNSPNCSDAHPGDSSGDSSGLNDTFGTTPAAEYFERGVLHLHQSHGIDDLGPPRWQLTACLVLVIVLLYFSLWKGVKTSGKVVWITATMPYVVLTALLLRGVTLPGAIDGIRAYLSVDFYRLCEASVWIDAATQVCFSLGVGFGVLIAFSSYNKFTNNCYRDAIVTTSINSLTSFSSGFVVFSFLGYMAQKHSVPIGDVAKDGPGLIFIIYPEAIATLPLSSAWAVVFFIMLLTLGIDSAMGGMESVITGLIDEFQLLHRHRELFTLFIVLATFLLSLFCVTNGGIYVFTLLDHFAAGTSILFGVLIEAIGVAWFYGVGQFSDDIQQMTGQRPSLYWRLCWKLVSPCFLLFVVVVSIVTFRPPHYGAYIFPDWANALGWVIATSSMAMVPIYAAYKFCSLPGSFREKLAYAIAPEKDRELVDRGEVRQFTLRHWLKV
Records with an inconclusive call do not appear. Calls of active or inactive are those of the source. How the source made its calls: active means hit-call score of the fitted dose curve at least 0.9, where 1 is the maximum; inconclusive means response in the unintended direction; inactive means score below 0.9.
Your reply should match one of these outcome classes. YES (active), NO (inactive)

Input line: Which outcome did this test record for the molecule Nc1ccc(S(=O)(=O)c2ccc(N)cc2)cc1 ?
Output line: YES

---

read-out: matrix metalloproteinase-10 (MMP10), MMP10 (gene 4319); assay: LTEA_HepaRG_MMP10: Life Technologies and Expression Analysis (LTEA) Assay for matrix metalloproteinase-10 (MMP10) using HepaRG (AID 2283517); settings: mRNA level, 48 h; actives raise or lower the signal
Calls of active or inactive are those of the source. The calls were made as follows: active = hit-call score of the fitted dose curve at least 0.9, where 1 is the maximum; inactive = score below 0.9.
Your reply should match one of these outcome classes. active, inactive

Input line: Which outcome did this test record for the compound NCCO ?
Output line: inactive

---

read-out: CD40, CD40 (gene 958); experiment: BSK_LPS_CD40: BioMAP Diversity Plus: LPS Assay for CD40 Biomarker Activity (AID 2283076); details: primary human HUVEC with PBMC; actives raise or lower the signal
The source made the active and inactive calls. Rule for the calls: active = hit-call score of the fitted dose curve at least 0.9, where 1 is the maximum; inactive = score below 0.9.
Your reply should match one of these outcome classes. active, inactive

# example entries with known answers
Cc1ccccc1Cl; inactive
Cc1ccc(C(C)C)c(O)c1; inactive
CCCCCCCCCCCC(=O)OC; inactive

Input line: Which outcome did this test record for the compound Nc1ccc2c(c1)C(=O)c1ccccc1C2=O ?
Output line: inactive

Input line: Lookup COCCOC[C@H](CC1(C(=O)NC2CCC(C(=O)O)CC2)CCCC1)C(=O)Oc1ccc2c(c1)CCC2 (some centres not stated)
Output line: inactive

Input line: Lookup CCCc1cc(=O)[nH]c(=S)[nH]1
Output line: inactive

Input line: Lookup C=CCOC(=O)c1ccccc1C(=O)OCC=C
Output line: inactive

Input line: Lookup CCOC(=O)C(C)(C)Oc1ccc(Cl)cc1
Output line: inactive

Input line: Lookup O=c1c(O)c(-c2ccc(O)c(O)c2)oc2cc(O)cc(O)c12
Output line: active

Input line: Lookup O=[N+]([O-])C(CO)(CO)CO
Output line: inactive

Input line: Lookup CC(=O)OCCOCCOCCOC(C)=O
Output line: inactive

Input line: Lookup Nc1ccccc1N
Output line: active

---

read-out: C-C motif chemokine 2 (Homo sapiens); assay: BSK_KF3CT_MCP1: BioMAP Diversity Plus: KF3CT Assay for Monocyte Chemoattractant Protein 1 (MCP1/CCL2) Biomarker Activity (AID 2283073); conditions: primary human keratinocytes with fibroblasts; actives raise or lower the signal
Calls of active or inactive are those of the source. Rule for the calls: active = hit-call score of the fitted dose curve at least 0.9, where 1 is the maximum; inactive = score below 0.9.
Your reply should match one of these outcome classes. true = active, false = inactive

# example entries with known answers
CCCCN(CCCC)CCCC; false
O=C(O)Cc1ccccc1Nc1c(Cl)cccc1Cl; true
COc1ccc2c(c1)c(CC(=O)O)c(C)n2C(=O)c1ccc(Cl)cc1; false
CCNc1cccc(C)c1; false
CC(=O)OCCOCCOCCOC(C)=O; false
CCCCCCC(=O)OCC; false

Input line: Which outcome did this test record for the compound CC(=O)Oc1ccccc1C(=O)O ?
Output line: false

Input line: Lookup CN[C@H]1CC[C@@H](c2ccc(Cl)c(Cl)c2)c2ccc(S(N)(=O)=O)cc21
Output line: true

Input line: Lookup OC[C@@H](O)[C@@H](O)[C@H](O)[C@H](O)CO
Output line: false

Input line: Lookup c1cc(-c2ccncc2)ccn1
Output line: false

Input line: Lookup CCCCCCCCCCO
Output line: false

---

read-out: Monocyte Chemoattractant Protein-1 (MCP1), CCL2 (gene 6347); experiment: BSK_3C_MCP1: BioMAP Diversity Plus: 3C Assay for Monocyte Chemoattractant Protein-1 (MCP1) Biomarker Activity (AID 2283017); conditions: primary human endothelial cells (HUVEC); actives raise or lower the signal
Activity calls are given as the source filed them. The calls were made as follows: active = hit-call score of the fitted dose curve at least 0.9, where 1 is the maximum; inactive = score below 0.9.
Your reply should match one of these outcome classes. active, inactive

# example entries with known answers
O=C(O)Cc1ccccc1Nc1c(Cl)cccc1Cl; inactive
Cc1nc(-c2ccc3c(c2)CCN(CCC2CCC(NC(=O)/C=C/c4ccc(F)cc4)CC2)CC3)no1 (stereo unspecified); inactive
C[Si]1(C)O[Si](C)(C)O[Si](C)(C)O[Si](C)(C)O1; inactive
C=CCOC(=O)c1ccccc1C(=O)OCC=C; inactive
CCCCOC(=O)CCCCCCCCC(=O)OCCCC; inactive

Input line: Which outcome did this test record for the compound COc1ccc2c(c1)c(CC(=O)O)c(C)n2C(=O)c1ccc(Cl)cc1 ?
Output line: inactive

Input line: Lookup CCCCCCCCCCCCCCCC
Output line: inactive

Input line: Lookup CCNc1cccc(C)c1
Output line: inactive

Input line: Lookup Cc1oc(-c2ccccc2)nc1CCOc1cccc2c1ccn2CCC(=O)O
Output line: inactive

Input line: Lookup Cc1cccc([N+](=O)[O-])c1C
Output line: inactive

Input line: Lookup c1cc(-c2ccncc2)ccn1
Output line: inactive

Input line: Lookup NS(=O)(=O)c1cc2c(cc1Cl)NCNS2(=O)=O
Output line: inactive

Input line: Lookup CC(CO)OC(C)CO (stereo unspecified) (tested in a mixture with another compound)
Output line: inactive

Input line: Lookup COc1cc(S(=O)(=O)O)c(C)cc1N=Nc1c(O)ccc2cc(S(=O)(=O)O)ccc12
Output line: inactive

---

read-out: Monokine induced gamma interferon (MIG), CXCL9 (gene 4283); assay: BSK_3C_MIG: BioMAP Diversity Plus: 3C Assay for Monokine induced gamma interferon (MIG) Biomarker Activity (AID 2283021); settings: primary human endothelial cells (HUVEC); actives raise or lower the signal;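 for AC50: MIG protein level measured by immunoassay in the treated endothelial cultures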
Active and inactive are the calls of the source. How the source made its calls: active means hit-call score of the fitted dose curve at least 0.9, where 1 is the maximum; inactive means score below 0.9.
Test Readout: AC50

CCCCCCC(=O)OCC; inactive
Cc1ccc(C)c(O)c1C; inactive
CCCCCCCCCCCCCO; 37.4 µM (active)
COc1ccc(S(=O)(=O)N2C(=O)[C@@](c3ccccc3OC)(N3C[C@H](O)C[C@H]3C(=O)N(C)C)c3cc(Cl)ccc32)c(OC)c1; inactive
O=C(N[C@@H](Cc1ccccc1)[C@@H](O)C(=O)N1C[C@@H](O)[C@@H](O)C1)c1cc2cc(Cl)ccc2[nH]1; inactive

Input line: Look up AC50 for this compound: c1cc(-c2ccncc2)ccn1
Output line: inactive

Input line: Lookup COc1cc(C=O)ccc1O
Output line: inactive
